Values compiled from patent US5464551A.

test: in vivo; settings: topical or ocular

[
  {
    "compound": "CC(C)COP(=O)(OCC(C)C)OCC(C)C [TIBP, triisobutyl phosphate]",
    "LD50": "> 5000 mg/kg"
  }
]

----------
experiment: in vivo; conditions: po
observed-property: LD50

[
  {
    "compound": "CC(C)COP(=O)(OCC(C)C)OCC(C)C [TIBP, triisobutyl phosphate]",
    "data-value": "> 5000 mg/kg"
  }
]

----------
experiment: in vivo; conditions: chicken

[
  {
    "compound": "CC(C)COP(=O)(OCC(C)C)OCC(C)C [TIBP, triisobutyl phosphate]",
    "LD50": "> 5000 mg/kg"
  }
]
